Can you tell me viability at 1.25 µM for the items I'm about to list?
Test: MTT cytotoxicity assay, normal Vero cells;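 further: monolayers exposed to two-fold dilutions in 2% serum medium, MTT added for 4 h, formazan in DMSO read at 560 nm minus 620 nm, controls given medium alone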
Assay type: cell-based
Conditions: African green monkey, normal Vero cells; Vero; MTT; 1.25 uM
Answers are plain numbers, in %.

Below, 4 compounds whose answers are already recorded.
[
  {
    "compound": "Nc1c(/N=C(/CBr)c2ccccc2)c(=O)[nH]c(=O)n1Cc1ccccc1",
    "viability at 1.25 µM [%]": 63.6
  },
  {
    "compound": "Cn1c(SCC(=O)c2ccccc2)nc(=O)c(/N=C(/CBr)c2ccccc2)c1N",
    "viability at 1.25 µM [%]": 97.6
  },
  {
    "compound": "CCn1c(N)c(/N=C(/CBr)c2ccc(OC)cc2)c(=O)[nH]c1=O",
    "viability at 1.25 µM [%]": 83.6
  },
  {
    "compound": "CN(Cc1cnc2nc(N)nc(N)c2n1)c1ccc(C(=O)N[C@@H](CCC(=O)O)C(=O)O)cc1 [Methotrexate, reference compound]",
    "viability at 1.25 µM [%]": 99.3
  }
]

Now for another entry.
Query string: Provide one value: measured viability at 1.25 µM of `COc1ccc(/C(CBr)=N\c2c(N)n(Cc3ccccc3Cl)c(=O)[nH]c2=O)cc1`
Result string: 70.3
